# Test system: Leishmania donovani
# test-name: Leishmania intramacrophage assay
# Assay type: functional, organism-based
# Set-up: scale not given: in the data most compounds retested in dose-response had high values
# assay-setup: 30.3 µM; […]
The whole screen tested about 69,000 compounds, of which about 1,000 (1.4%) showed an effect of 50% or more. Many of the other results were omitted from the sample, so strong results are more common in it than they were.
Field 'label' (enum: Y / N). Set to Y when Percent Effect is strictly under 10%; else N.

(Q) Say whether its Percent Effect is strictly beneath 10%. Entry: COc1cccc2c1OCC(NC(=O)NCCC(N)=O)C2 (stereo unspecified)
(A) Y

(Q) Request: NC(=O)C1CCCN(S(=O)(=O)c2cnn(-c3ccccc3)c2)C1 (stereo unspecified)
(A) N

(Q) Request: CCc1c(C)nn(CC(=O)NC(C(=O)O)c2c(C)n[nH]c2C)c1C (stereo unspecified)
(A) N

(Q) Request: CCc1nc(NC2CC(=O)N(CC3CCCCC3)C2)ncc1C (stereo unspecified)
(A) N

(Q) Request: NC(=O)C1CCN(S(=O)(=O)c2cnn(-c3ccccc3)c2)CC1
(A) N

(Q) Request: NC(=O)C1CCN(S(=O)(=O)c2cnn(-c3ccccc3)c2)C1 (stereo unspecified)
(A) N

(Q) Request: Cc1nn(C)c(C)c1NC(=O)CN1CCOC(Cn2cccn2)C1 (stereo unspecified)
(A) Y

(Q) Request: COc1ccccc1CN(C)C(=O)CN1CC(n2nc(C)cc2C)C1
(A) N

(Q) Request: O=C(O)C1CN(c2cncc(Cc3ccccc3F)n2)C1
(A) N

(Q) Request: COc1ccccc1Cc1cncc(N2CC(C(=O)O)C2)n1.Cl
(A) N

(Q) Request: Cc1cc(C)n(C2CN(CC(=O)N(C)Cc3ccco3)C2)n1
(A) Y
